Data origin, for the record: patent US20100168228A1

# Tested on: RAW 264.7 cells
# experiment notes: Nitrite quantification (Griess) in LPS stimulated macrophages
# Format: cell-based, mouse
# condition notes: RAW 264.7 + LPS (200 ng/ml) + 10 μM compound, 24 h; LPS + DMSO control 14.560, basal 0.782
Tick satisfied if CONCENTRATION OF NITRITE μM ± SD is 2 µM or greater. Tick not satisfied if CONCENTRATION OF NITRITE μM ± SD is less than 2 µM.

COC(=O)/C=C/c1ccc(OC(=O)c2ccc(O)c(OC)c2)c(OC)c1 [compound 11] :: satisfied
COC(=O)/C=C/c1ccc(OC(=O)/C=C/c2ccc(O)c(O)c2)c(OC)c1 [compound 2] :: satisfied
COC(=O)c1ccccc1OC(=O)/C=C/c1ccc(O)cc1 [compound 20] :: satisfied
COC(=O)c1ccccc1OC(=O)c1ccc(O)c(OC)c1 [compound 9] :: satisfied
COC(=O)c1ccc(OC(=O)/C=C/c2ccc(O)c(O)c2)c(OC)c1 [compound 1] :: not satisfied

###

# Test system: TNFα
# experiment notes: Bioassay of TNFα production by LPS activated RAW 264.7 macrophages using L929 cell line
# Type: cell-based
# condition notes: Mus musculus; L929 + ActD + supernatant from LPS + compound (10 μM) treated RAW 264.7 macrophage; crystal violet; mean ± S.D. of triplicate; read-out: PERCENTAGE CELL SURVIVAL ± S.D.
Entries and their viability at 10 µM values follow.
measured endpoint: viability at 10 µM (%)

COc1cc(C(=O)Oc2ccc(C=O)cc2OC)ccc1O :: 50.9
C/C=C/c1cc(OC)c2c(c1)[C@@H](C)[C@H](c1ccc(OC(=O)c3ccc(O)c(OC)c3)c(OC)c1)O2 (racemic) :: 49
C=CCc1ccc(OC(=O)/C=C/c2ccc(O)cc2)c(OC)c1 :: 52.3
C=CCc1ccc(OC(=O)c2ccc(O)c(OC)c2)c(OC)c1 :: 50.6
COC(=O)/C=C/c1ccc(OC(=O)/C=C/c2ccc(O)c(O)c2)c(OC)c1 :: 68

###

Listed below: viability at 10 µM values for each entry.
# Tested on: TNFα
# experiment notes: Bioassay of TNFα production by LPS activated RAW 264.7 macrophages using L929 cell line
# Type: cell-based
# condition notes: Mus musculus; L929 + ActD + supernatant from LPS + compound (10 μM) treated RAW 264.7 macrophage; crystal violet; mean ± S.D. of triplicate; read-out: PERCENTAGE CELL SURVIVAL ± S.D.
measured endpoint: viability at 10 µM (%)

C/C=C/c1ccc(OC(=O)/C=C/c2ccc(O)c(O)c2)c(OC)c1 :: 65.3
C/C=C/c1cc(OC)c2c(c1)[C@@H](C)[C@H](c1ccc(OC(=O)/C=C/c3ccc(O)c(OC)c3)c(OC)c1)O2 (racemic) :: 53.7
COC(=O)c1ccccc1OC(=O)/C=C/c1ccc(O)cc1 :: 51.9
COC(=O)c1ccc(OC(=O)/C=C/c2ccc(O)cc2)c(OC)c1 :: 51.9
COC(=O)/C=C/c1cc(OC)c2c(c1)[C@@H](C(=O)OC)[C@H](c1ccc(OC(=O)/C=C/c3ccc(O)c(O)c3)c(OC)c1)O2 :: 66.6
COc1cc(C=O)ccc1OC(=O)/C=C/c1ccc(O)c(O)c1 :: 67.8
COC(=O)c1ccc(OC(=O)c2ccc(O)c(OC)c2)c(OC)c1 :: 51.6
COC(=O)/C=C/c1ccc(OC(=O)/C=C/c2ccc(O)cc2)c(OC)c1 :: 50.4
COc1cc([C@@H]2Oc3c(OC)cc(/C=C/C(=O)O)cc3[C@H]2C(=O)O)ccc1O :: 46.5
C/C=C/c1ccc(OC(=O)/C=C/c2ccc(O)cc2)c(OC)c1 :: 51.2
COC(=O)/C=C/c1cc(OC)c2c(c1)[C@@H](C(=O)OC)[C@H](c1ccc(OC(=O)c3ccc(O)c(OC)c3)c(OC)c1)O2 :: 51.3
COC(=O)c1ccccc1OC(=O)c1ccc(O)c(OC)c1 :: 51.1
COC(=O)/C=C/c1ccc(OC(=O)/C=C/c2ccc(O)cc2)c(OC(=O)/C=C/c2ccc(O)cc2)c1 :: 65.6
C=CCc1ccc(OC(=O)/C=C/c2ccc(O)c(O)c2)c(OC)c1 :: 69.1
COC(=O)/C=C/c1ccc(OC(=O)c2ccc(O)c(OC)c2)c(OC)c1 :: 52.4
COc1cc([C@@H]2Oc3c(O)cc(/C=C/C(=O)O)cc3[C@H]2C(=O)O)ccc1O :: 66.4
COC(=O)c1ccc(OC(=O)c2cc(O)c(O)c(O)c2)c(OC)c1 :: 58.8

###

# Tested on: RAW 264.7 cells
# experiment notes: Nitrite quantification (Griess) in LPS stimulated macrophages
# Type: cell-based, mouse
# condition notes: RAW 264.7 + LPS (200 ng/ml) + 10 μM compound, 24 h; LPS + DMSO control 14.560, basal 0.782
// CONCENTRATION OF NITRITE μM ± SD lookup, one value per entry
measured endpoint: CONCENTRATION OF NITRITE μM ± SD

COC(=O)/C=C/c1ccc(OC(=O)/C=C/c2ccc(O)cc2)c(OC)c1 [compound 18] :: 7.960 ± 0.437 µM
C/C=C/c1cc(OC)c2c(c1)[C@@H](C)[C@H](c1ccc(OC(=O)/C=C/c3ccc(O)c(OC)c3)c(OC)c1)O2 (racemic) [compound 25] :: 7.871 ± 0.168 µM
COC(=O)/C=C/c1cc(OC)c2c(c1)[C@@H](C(=O)OC)[C@H](c1ccc(OC(=O)/C=C/c3ccc(O)c(O)c3)c(OC)c1)O2 [compound 6] :: 3.204 ± 0.168 µM
COC(=O)c1ccc(OC(=O)c2ccc(O)c(OC)c2)c(OC)c1 [compound 10] :: 6.849 ± 0.806 µM
COc1cc(C=O)ccc1OC(=O)/C=C/c1ccc(O)c(O)c1 [compound 8] :: 3.893 ± 0.133 µM
C/C=C/c1ccc(OC(=O)/C=C/c2ccc(O)c(O)c2)c(OC)c1 [compound 7] :: 3.760 ± 0.546 µM
C=CCc1ccc(OC(=O)c2ccc(O)c(OC)c2)c(OC)c1 [compound 13] :: 8.004 ± 0.379 µM
COc1cc([C@@H]2Oc3c(OC)cc(/C=C/C(=O)O)cc3[C@H]2C(=O)O)ccc1O [compound 27] :: 5.027 ± 0.200 µM
C/C=C/c1ccc(OC(=O)c2ccc(O)c(OC)c2)c(OC)c1 [compound 14] :: 8.382 ± 0.278 µM
COC(=O)/C=C/c1cc(OC)c2c(c1)[C@@H](C(=O)OC)[C@H](c1ccc(OC(=O)/C=C/c3ccc(O)cc3)c(OC)c1)O2 [compound 24] :: 8.582 ± 0.214 µM
COC(=O)c1ccc(OC(=O)/C=C/c2ccc(O)cc2)c(OC)c1 [compound 17] :: 8.404 ± 0.315 µM
C/C=C/c1cc(OC)c2c(c1)[C@@H](C)[C@H](c1ccc(OC(=O)c3ccc(O)c(OC)c3)c(OC)c1)O2 (racemic) [compound 16] :: 8.449 ± 0.234 µM
C=CCc1ccc(OC(=O)/C=C/c2ccc(O)cc2)c(OC)c1 [compound 21] :: 8.293 ± 0.371 µM
COc1cc([C@@H]2Oc3c(O)cc(/C=C/C(=O)O)cc3[C@H]2C(=O)O)ccc1O [compound 28] :: 7.604 ± 0.204 µM
COC(=O)c1ccccc1OC(=O)/C=C/c1ccc(O)c(O)c1 [compound 3] :: 3.022 ± 0.300 µM
COc1cc(C(=O)Oc2ccc(C=O)cc2OC)ccc1O [compound 15] :: 8.271 ± 0.342 µM
C/C=C/c1ccc(OC(=O)/C=C/c2ccc(O)cc2)c(OC)c1 [compound 23] :: 8.338 ± 0.204 µM
